# assayed-system: HDAC5 (Homo sapiens, UniProt Q9UQL6)
# Construct: purchased Reaction Biology
# Sequence (Q9UQL6 whole entry): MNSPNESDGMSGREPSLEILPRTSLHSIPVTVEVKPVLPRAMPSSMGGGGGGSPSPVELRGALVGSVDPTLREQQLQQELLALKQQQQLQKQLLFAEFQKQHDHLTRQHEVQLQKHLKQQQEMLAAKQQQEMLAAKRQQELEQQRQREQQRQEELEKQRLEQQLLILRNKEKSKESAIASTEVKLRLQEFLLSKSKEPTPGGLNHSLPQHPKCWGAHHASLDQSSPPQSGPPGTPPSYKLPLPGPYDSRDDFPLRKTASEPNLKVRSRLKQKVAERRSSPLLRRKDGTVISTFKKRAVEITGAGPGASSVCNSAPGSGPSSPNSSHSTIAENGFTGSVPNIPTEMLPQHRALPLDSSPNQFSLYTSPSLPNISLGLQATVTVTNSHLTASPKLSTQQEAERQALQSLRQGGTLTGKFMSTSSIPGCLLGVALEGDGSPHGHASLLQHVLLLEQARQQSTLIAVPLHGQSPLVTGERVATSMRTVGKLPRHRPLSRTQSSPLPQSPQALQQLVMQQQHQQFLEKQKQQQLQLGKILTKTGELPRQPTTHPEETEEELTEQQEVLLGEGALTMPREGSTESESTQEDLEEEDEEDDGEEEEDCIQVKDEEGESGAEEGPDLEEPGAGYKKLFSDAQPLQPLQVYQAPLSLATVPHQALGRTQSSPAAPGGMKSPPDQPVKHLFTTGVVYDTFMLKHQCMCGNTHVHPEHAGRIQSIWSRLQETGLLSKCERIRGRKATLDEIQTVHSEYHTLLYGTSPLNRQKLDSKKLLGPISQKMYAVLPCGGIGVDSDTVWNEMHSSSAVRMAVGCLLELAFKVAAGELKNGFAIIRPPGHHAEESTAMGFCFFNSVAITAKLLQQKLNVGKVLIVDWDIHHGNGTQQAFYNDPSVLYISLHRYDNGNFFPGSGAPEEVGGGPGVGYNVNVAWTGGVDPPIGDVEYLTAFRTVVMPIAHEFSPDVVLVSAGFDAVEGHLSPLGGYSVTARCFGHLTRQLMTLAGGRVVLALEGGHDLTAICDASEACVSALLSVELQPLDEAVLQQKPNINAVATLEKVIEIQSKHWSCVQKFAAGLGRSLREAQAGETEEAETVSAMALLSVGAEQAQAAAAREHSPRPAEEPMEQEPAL
# assay-text: HDAC enzymatic assay (Reaction Biology), Class 2A substrate
# Type: biochemical
# test-context: 10-dose response curve; read-out: Compound IC50 (M), HDAC5
quantity-name: IC50 (M)
Numbers only, in M.

Query block: Could you share which IC50 value was measured for "Cc1ncsc1-c1ccc([C@H](C)NC(=O)[C@@H]2C[C@@H](O)CN2C(=O)[C@@H](NC(=O)CCOCCOCCN(CCc2c[nH]c3ccccc23)Cc2ccc(/C=C/C(=O)NO)cc2)C(C)(C)C)cc1" ?
Result block: 2.69e-06

====

# assayed-system: HDAC1 (Homo sapiens, UniProt Q13547)
# Construct: purchased Reaction Biology
# Sequence (Q13547 whole entry): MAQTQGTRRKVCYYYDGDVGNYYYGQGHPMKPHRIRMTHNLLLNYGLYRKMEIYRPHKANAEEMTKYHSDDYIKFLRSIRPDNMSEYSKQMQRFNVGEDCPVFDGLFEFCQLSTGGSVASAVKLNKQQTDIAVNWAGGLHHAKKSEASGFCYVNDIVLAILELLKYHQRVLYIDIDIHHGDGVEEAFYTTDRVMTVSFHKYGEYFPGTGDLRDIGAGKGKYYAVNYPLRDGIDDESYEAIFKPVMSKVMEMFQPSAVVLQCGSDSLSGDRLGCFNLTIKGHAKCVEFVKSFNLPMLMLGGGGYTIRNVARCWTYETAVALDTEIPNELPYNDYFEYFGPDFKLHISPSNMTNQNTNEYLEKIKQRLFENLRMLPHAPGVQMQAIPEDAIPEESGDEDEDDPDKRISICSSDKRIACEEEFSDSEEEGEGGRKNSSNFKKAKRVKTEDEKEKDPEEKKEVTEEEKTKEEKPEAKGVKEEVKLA
# assay-text: HDAC enzymatic assay (Reaction Biology), fluorogenic substrate
# Type: biochemical
# test-context: 10-dose response curve; read-out: Compound IC50 (M), HDAC1
quantity-name: IC50 (M)
One number for each entry, in M.

{"item-smiles": "Cc1ncsc1-c1ccc([C@H](C)NC(=O)[C@@H]2C[C@@H](O)CN2C(=O)[C@@H](NC(=O)CCOCCOCCN(CCc2c[nH]c3ccccc23)Cc2ccc(/C=C/C(=O)NO)cc2)C(C)(C)C)cc1", "IC50 / M": "4.81e-07"}

Please find the next compound below.
Query block: // IC50 lookup, key: "Cc1ncsc1-c1ccc([C@H](C)NC(=O)[C@@H]2C[C@@H](O)CN2C(=O)[C@@H](NC(=O)CCOCCN(CCc2c[nH]c3ccccc23)Cc2ccc(/C=C/C(=O)Nc3ccccc3N)cc2)C(C)(C)C)cc1"
Result block: 9.5e-06
